Test system: IL-1β, human whole blood
Assay: Whole blood assay for IL-1β production
Format: cell-based
Conditions: Homo sapiens, * = values obtained upon reassay; read-out: Whole human blood IC50
Text: The whole blood assay is a simple method for measuring the production of IL-1b (or other cytokines) and the activity of potential inhibitors. […] Prepare drug dilutions in sterile pyrogen-free saline by serial dilution. A dilution series which brackets the apparent Ki for a test compound determined in an ICE inhibition assay is generally used for the primary compound screen. […]
pIC50: −log10 of the molar value.
endpoint_label: pIC50

Note to self: pIC50 recorded for O=C(O)C[C@H](NC(=O)[C@@H]1CCCN2C(=O)CC[C@H](NC(=O)c3ccccc3)C(=O)N12)C(=O)CSc1nnnn1-c1ccccc1 [Compound 280] was < 6.00

The measured pIC50 associated with CC(=O)N1C[C@H](NC(=O)c2ccc3ccccc3c2)C(=O)N(CC(=O)N[C@H](C=O)CC(=O)O)c2ccccc21 [Compound 605n] reads < 4.70

The value of pIC50 measured for the compound CC(=O)N1C[C@H](NC(=O)c2ccc3c(c2)OCO3)C(=O)N(CC(=O)N[C@H](C=O)CC(=O)O)c2ccccc21 [Compound 628] turned out to be < 4.70

Data origin: patent US20120165319A1
